Sourced from the RNAGym collection of RNA variant scans (doi:10.1002/anie.201605470)

Provide the reported self-cleavage of each item.
B1: Osa-1-4 twister ribozyme (parent)
chain: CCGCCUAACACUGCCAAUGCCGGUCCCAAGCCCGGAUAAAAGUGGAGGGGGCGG

Variants of: B1
Assay Notes: self-cleavage, relative activity (ratio to wild type); higher = more cleavage; co-transcriptional
// keep it numeric: no unit symbol after the value

q: Fill blank: measured self-cleavage of the variant A16U G49U is ____.
a: 0.11

q: Cool, now C31A U24A
a: 0.02

q: Would you mind doing G53A G54A as well?
a: 0.62

q: Note, next up: A41U G47U
a: 0.25

q: Continue with A8G U24C
a: 0.1

q: Entry to check: A40C G19U
a: 0.04

q: Next: C11U G48A
a: 0.07

q: Queued: G48A U24A
a: 0.05

q: Same question, A41G G19A this time
a: 0.17

q: Next entry: A39C G19A
a: 0.28

q: Then this variant: C27A U37G
a: 0.42
